- measuredOn: Epidermal growth factor receptor (Homo sapiens) (UniProt P00533)
- Sequence (P00533 whole entry, looked up): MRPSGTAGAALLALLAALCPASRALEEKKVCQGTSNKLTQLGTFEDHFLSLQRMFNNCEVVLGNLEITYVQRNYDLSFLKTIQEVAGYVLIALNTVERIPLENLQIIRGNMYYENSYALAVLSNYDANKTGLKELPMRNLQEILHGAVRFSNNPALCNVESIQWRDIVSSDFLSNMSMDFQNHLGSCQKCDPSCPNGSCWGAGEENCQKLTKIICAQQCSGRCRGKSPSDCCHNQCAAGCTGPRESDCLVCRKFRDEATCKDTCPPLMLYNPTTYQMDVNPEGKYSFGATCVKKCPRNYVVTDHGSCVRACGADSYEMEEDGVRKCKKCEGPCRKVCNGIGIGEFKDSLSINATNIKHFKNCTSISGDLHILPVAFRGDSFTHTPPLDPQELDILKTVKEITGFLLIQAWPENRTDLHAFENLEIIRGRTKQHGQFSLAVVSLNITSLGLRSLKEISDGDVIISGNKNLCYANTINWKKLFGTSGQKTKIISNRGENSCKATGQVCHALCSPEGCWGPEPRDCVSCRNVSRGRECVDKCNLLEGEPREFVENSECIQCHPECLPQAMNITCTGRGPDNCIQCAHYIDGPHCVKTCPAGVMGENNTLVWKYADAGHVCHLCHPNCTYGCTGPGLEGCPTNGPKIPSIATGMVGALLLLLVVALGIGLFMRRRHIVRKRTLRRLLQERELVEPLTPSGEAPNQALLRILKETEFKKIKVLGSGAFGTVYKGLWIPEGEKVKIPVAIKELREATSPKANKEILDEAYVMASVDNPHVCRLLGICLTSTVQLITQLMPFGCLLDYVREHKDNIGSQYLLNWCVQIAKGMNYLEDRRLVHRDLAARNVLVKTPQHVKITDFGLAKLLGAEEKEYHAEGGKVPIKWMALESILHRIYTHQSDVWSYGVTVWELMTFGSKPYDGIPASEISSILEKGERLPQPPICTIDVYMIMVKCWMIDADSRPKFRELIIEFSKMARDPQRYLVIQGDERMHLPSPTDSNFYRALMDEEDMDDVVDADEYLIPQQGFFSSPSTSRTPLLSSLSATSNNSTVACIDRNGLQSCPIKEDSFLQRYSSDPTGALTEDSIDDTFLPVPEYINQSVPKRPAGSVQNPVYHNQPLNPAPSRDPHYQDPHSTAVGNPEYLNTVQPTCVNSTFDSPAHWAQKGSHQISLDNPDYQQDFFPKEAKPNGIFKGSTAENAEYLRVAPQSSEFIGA
- testSummary: EGFR binders on small-molecule microarrays, primary screen, biochemical, small-molecule microarray, 635 nm fluorescence (AID 1104);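 also: score merges 667 nm emission intensity with spot signal to noise over triplicate slides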
- assayContext: EGFR binding, higher = more signal
Catalogue of composite z-score values
Output spec: single numeric token, no unit.

INSERT INTO assay_data (smilesrepr, endpointlabel, obsvalue) VALUES
  ('O=C1O[C@H](c2ccccc2)[C@H](c2ccccc2)N2[C@H]1[C@@H](C(=O)O)[C@]1(C(=O)Nc3ccc(C#CCCO)cc31)[C@H]2c1ccc(O)cc1', 'composite z-score', -0.289),
  ('C=CCNC(=O)[C@@H]1[C@H]2C(=O)O[C@H](c3ccccc3)[C@H](c3ccccc3)N2[C@H](c2ccc(OCCO)cc2)[C@@]12C(=O)Nc1ccc(C#Cc3ccc(OC)cc3)cc12', 'composite z-score', 0.641);

Query molecule follows.
[in] What value of measured composite z-score is listed for CC(C)(C)OC(=O)CC[C@]1(C(=O)O)N=C(c2ccc(OCCCO)cc2)O[C@H]1c1ccccc1N=[N+]=[N-] ?
[out] -0.143

* * *

Catalogue of composite z-score values
- Tested on: glycogen synthase kinase-3 (GSK3A per assay name; protocol says GSK3B)
- testSummary: GSK3 binders on small-molecule microarrays, primary screen, biochemical, small-molecule microarray, 635 nm fluorescence, GSK3A (AID 1103); also: the record names both GSK3A and GSK3B
- assayContext: small-molecule microarray binding, fluorescence 635 nm; higher = more signal
Output spec: single numeric token, no unit.

Before answering, review these 10 worked examples.
INSERT INTO results (molecule, obsvalue) VALUES
  ('CN1C(=O)C2C=CC(C(O)c3ccc(I)cc3)N(N3CCCCC3)C2C1=O (stereo not given)', 0.354),
  ('COCCOC(=O)N1C(=O)[C@@]2(c3cc(C#CCCO)ccc31)[C@H](C(=O)Nc1nc3ccccc3s1)[C@H]1C(=O)O[C@H](c3ccccc3)[C@H](c3ccccc3)N1[C@@H]2c1ccc(OCCO)cc1', 0.687),
  ('C=CCN1C(=O)[C@]2(O[C@H](CCO)[C@@H]([Si](C)(C)c3ccc(OC)cc3)[C@@H]2C)c2cc(N3CCCCC3=O)ccc21', 0.549),
  ('CCCCC(O)C1C=CC2C(=O)N(c3ccccc3)C(=O)C2N1Nc1ccccc1F (stereo not given)', 0.827),
  ('C[C@]1(C(=O)NC2CC2)c2ccccc2C(=O)N(Cc2cc(C(F)(F)F)cc(C(F)(F)F)c2)[C@H]1c1ccc(CO)cc1', 0.948),
  ('CN1C(=O)C2C=CC(C(O)C3CC=CCC3)N(NC(=O)OC(C)(C)C)C2C1=O (stereo not given)', 1.12),
  ('CCOC(=O)[C@H]1CC=C2CC1C(=O)N1CCC[C@@H]1[C@@H]2O[Si](C)(C)C(C)(C)C (stereo not given in full)', -1.22),
  ('COCCOC(=O)N1C(=O)[C@@]2(c3ccccc31)[C@H](c1ccccc1OCCO)N1[C@H](c3ccccc3)[C@H](c3ccccc3)OC(=O)[C@H]1[C@@H]2C(=O)Nc1nc2ccccc2s1', 1.32),
  ('COC(=O)[C@@]1(Cc2ccc(F)cc2)[C@H]2c3cc(C(=O)N4CCCC4)n(Cc4cc(C)n(C)n4)c3C[C@H]2CN1C(=O)c1ccccc1', 0.775),
  ('NCCCCCNC(=O)[C@@H]1C[C@@H]2C(=O)NCC(=O)N2[C@@H]1c1ccc(O)cc1', 1.32);

[in] What value of measured composite z-score is listed for Cc1ccc(S[C@]2(C(=O)NC3CC3)CC(=O)N(C3Cc4ccccc4C3)[C@@H]2c2ccc(CO)cc2)cc1 ?
[out] -0.15

[in] What value of measured composite z-score is listed for CN1C(=O)C2C=CC(C(O)Cc3ccccc3)N(Nc3ccccc3)C2C1=O (stereo not given) ?
[out] -0.442

[in] What value of measured composite z-score is listed for CN1C(=O)C2C=CC(C(O)c3cc(C(F)(F)F)cc(C(F)(F)F)c3)N(N3CCCCC3)C2C1=O (stereo not given) ?
[out] -0.0883

[in] What value of measured composite z-score is listed for CCCCCN1CC=CC23O[C@@H]4/C=C\CCCOC(=O)C4[C@H]2C(=O)N(CCCO)[C@@H]3C1=O (stereo not given in full) ?
[out] 1.06

[in] What value of measured composite z-score is listed for CCOC(=O)C[C@H]1[C@H](OC(=O)c2cc3ccccc3oc2=O)[C@@H](NC(=O)C2CCCCC2)c2cc(OCCCO)ccc2N1C(=O)c1ccccc1 ?
[out] 0.692
